Measured IC50 values are reported for all entries that follow.
# System: MDA-MB-231 cells
# MEASUREMENT PROTOCOL: MTT cell viability assay, MDA-MB-231 cells
# Type: cell-based, human
# PARTICULARS: MDA-MB-231, 72 h, MTT, single agent; read-out: IC50, –OLAP (compound alone)
// note: answer is a bare numeric in µM

1) c1ccc(-c2nc3c4ccc[n+]5c4c4c(ccc[n+]4[Ru-4]546([n+]5cccc7ccc8ccc[n+]4c8c75)[n+]4cccc5ccc7ccc[n+]6c7c54)c3[nH]2)cc1 [Compound 3, [Ru(phen)2(PIP)]^2+] :: 29.2
2) Cc1cc[n+]2c(c1)-c1cc(C)cc[n+]1[Ru-4]213([n+]2ccc(C)cc2-c2cc(C)cc[n+]21)[n+]1cccc2c4nc5cc(C)cc(C)c5nc4c4ccc[n+]3c4c21 [Compound 7, [Ru(4,4′dmb)2(dmdppz)]^2+] :: 34.3

What value of measured IC50 is listed for N.N.[Cl][Pt][Cl] [cisplatin, reference compound] ?
35.3

====

# Test system: MDA-MB-231 cells
# MEASUREMENT PROTOCOL: MTT cell viability assay, MDA-MB-231 cells
# Type: cell-based, human
# PARTICULARS: MDA-MB-231, 72 h, MTT, single agent; read-out: IC50, –OLAP (compound alone)
# Protocol: Following treatment, solutions were removed, thiazolyl blue tetrazolium bromide (MTT, 0.5 mg/mL) reagent was added to the cells, and plates were incubated for 4 h. The reduced purple formazan crystals were solubilized with 100 μL of DMSO, and the absorbance at 570 nm (620 nm as reference wavelength) was measured using a microplate reader. The average in percent reduction of cell viability was expressed relative to untreated control cells. […]
MEASUREMENT KIND: pIC50
# reply with the number alone; pIC50 is -log10 of concentration in mol/L

// known answers, use as guide
1) Oc1ccc(-c2nc3c4ccc[n+]5c4c4c(ccc[n+]4[Ru-4]546([n+]5cccc7ccc8ccc[n+]4c8c75)[n+]4cccc5ccc7ccc[n+]6c7c54)c3[nH]2)cc1 [Compound 4, [Ru(phen)2(H-PIP)]^2+] :: 4.94
2) Cc1cc(C)c2nc3c4ccc[n+]5c4c4c(ccc[n+]4[Ru-4]546([n+]5cc(C)ccc5-c5ccc(C)c[n+]54)[n+]4cc(C)ccc4-c4ccc(C)c[n+]46)c3nc2c1 [Compound 6, [Ru(5,5′dmb)2(dmdppz)]^2+] :: 4.06

Please examine the following record next.
Which measured pIC50 belongs to Cc1cc(C)c2nc3c4ccc[n+]5c4c4c(ccc[n+]4[Ru-4]546([n+]5ccccc5-c5cccc[n+]54)[n+]4ccccc4-c4cccc[n+]46)c3nc2c1 [Compound 5, [Ru(bpy)2(dmdppz)]^2+] , tested on MDA-MB-231 cells?
4.12
